# ASSAY INFO: AUC (last) in healthy human at 400 mg, po administered as single dose
# Assay type: ADME, organism-based
# Parameters: dose 400 mg, time 0 - last, route oral
# EXPERIMENTAL CONTEXT: plasma
EXPERIMENTAL ENDPOINT: AUC(0-t)
// unit must come after the numeric part

Ask | Using the record for CCN(CCO)CCCC(C)Nc1ccnc2cc(Cl)ccc12 (stereo unspecified) [HYDROXYCHLOROQUINE] , report its AUC(0-t).
Reply | 75.4 µM·h

###

# ASSAY INFO: Cmax in healthy human plasma at 400 mg, po administered as single dose
# Format: ADME, organism-based
# Parameters: dose 400 mg, route oral
EXPERIMENTAL ENDPOINT: Cmax (nM)
Report the value in nM with no unit label.

Ask | Using the record for CCN(CCO)CCCC(C)Nc1ccnc2cc(Cl)ccc12 (stereo unspecified) [HYDROXYCHLOROQUINE] , report its Cmax.
Reply | 1220

###

# ASSAY INFO: Apparent oral clearance in healthy human at 400 mg, po administered as single dose
# Assay type: ADME, organism-based
# EXPERIMENTAL CONTEXT: in vivo
EXPERIMENTAL ENDPOINT: CL/F

Ask | Using the record for CCN(CCO)CCCC(C)Nc1ccnc2cc(Cl)ccc12 (stereo unspecified) [HYDROXYCHLOROQUINE] , report its CL/F.
Reply | 200 mL/min

###

# Test system: Homo sapiens
# ASSAY INFO: Cmax in healthy human plasma assessed as desethylchloroquine level at 400 mg, po administered as single dose
# Format: ADME, organism-based
# Parameters: dose 400 mg, route oral
# EXPERIMENTAL CONTEXT: in vivo
EXPERIMENTAL ENDPOINT: Cmax (nM)
Report the value in nM with no unit label.

Ask | Using the record for CCN(CCO)CCCC(C)Nc1ccnc2cc(Cl)ccc12 (stereo unspecified) [HYDROXYCHLOROQUINE] , report its Cmax.
Reply | 60

###

# ASSAY INFO: Terminal half life in healthy human at 400 mg, po administered as single dose
# Format: ADME, organism-based
# EXPERIMENTAL CONTEXT: in vivo, read-out: beta t1/2 (converted)
EXPERIMENTAL ENDPOINT: half-life (h)
Report the value in h with no unit label.

Ask | Using the record for CCN(CCO)CCCC(C)Nc1ccnc2cc(Cl)ccc12 (stereo unspecified) [HYDROXYCHLOROQUINE] , report its half-life.
Reply | 172
